test system: M14 melanoma; assay: NCI tumour cell line growth inhibition, 48 h
Measured TGI values are reported for all entries that follow.

The cases that follow already have their TGI on record.
>  <Compound>
O=c1cnn(C2OC(C(O)CO)C(O)C2O)c(=O)[nH]1 (configuration not stated)

>  <Value Observed>
> 100 µM

$$$$
>  <Compound>
CCCCCCCCCC1(N=[N+]=[N-])C(=O)c2ccccc2N(C)C1=O (configuration not stated)

>  <Value Observed>
64.6 µM

$$$$
>  <Compound>
O=C1C(Cl)N(c2ccc(Cl)cc2)C1c1c[nH]c2ccccc12 (configuration not stated)

>  <Value Observed>
42.3 µM

$$$$
>  <Compound>
COc1cc(C2SCC(=O)N2c2ccccn2)cc(OC)c1OC (configuration not stated)

>  <Value Observed>
> 100 µM

$$$$

Which TGI reading was recorded for the compound COc1cc(N(CCC#N)CCC#N)ccc1/C(N=Nc1ccc([N+](=O)[O-])cc1)=N/NC(=O)c1cc(Br)ccc1O ?
148 µg/mL

Could you tell me which TGI is on file for CN1CCN(C(=O)CCNC(=O)Cc2ccc(C(=O)c3ccccc3)cc2)CC1 ?
> 100 µM

Form field: reported TGI of OC1(C(F)(F)F)OCCN=C1C(F)(F)F (configuration not stated)
> 100 µM

Can you look up the measured TGI of Cc1cc([N+](=O)[O-])ccc1Nc1cccc(Cl)c1C for me?
29.1 µM

Would you mind telling me what TGI value was observed for CNC(=O)N(C)N=NCCCl ?
> 100 µM

What measured TGI goes with NC1CC(=O)c2c(Br)csc21 (configuration not stated) ?
> 100 µM

Which TGI reading was recorded for the compound CC(=O)N(C)c1ccc(Nc2cc(C)[nH]c3ccc4ncnc4c23)cc1 ?
21.5 µM

So what's the measured TGI for this one? N#Cc1c(NN)n(C2OC(CO)C(O)C2O)c2ncnc(N)c12 (configuration not stated)
0.303 µM

Which TGI reading was recorded for the compound CCCCC1=NNC(=O)C1 ?
> 100 µM

Would you kindly share the measured TGI for N#Cc1c(-c2ccc(Cl)cc2)c2c([nH]c1=O)-c1ccccc1SC2 ?
> 100 µM

Attribution: PubChem BioAssay (NCI)
